system: alkaline protease Ya (enzyme Ya) produced by Bacillus sp. Y (FERM BP-1029); assay type: biochemical
Numbered stars: 1 amine (or outer) side, 2 acyl side, 3 side chain; on linkers, the order of the positions; unused ones are H or OH. Peptide text beside a SMILES is read from it. CO = O=C([*:1])[*:2]
assay-readout: Inhibition of enzyme Ya (in words)

1) O=C(O)CN(CCN(CC(=O)O)CC(=O)O)CC(=O)O; not inhibited
2) CC(C)[C@H](NC(=O)[C@H](CCCNC(=N)N)NC(=O)N[C@@H](Cc1ccccc1)C(=O)O)C(=O)N[C@H](C=O)CCCNC(=N)N [Antipain] ({Phe-CO}-Arg-Val-Arg-aldehyde); not inhibited
3) O=C(O)c1cc[c]([Hg][Cl])cc1; not inhibited
